System: Fibroblast
experiment-description: Multiplex assay against human fibroblast
Type: toxicity, cell-based
test-parameters: 12 h, 1 µM, compound concentration 1 uM, replicate 1

compound	test-target	unit-descriptor	Population Normal (%)
Cc1nc(N2CC[C@H](O)C2)ncc1-c1cc(C(F)(F)F)cc2[nH]ncc12	Fibroblast	%	87
O=c1[nH]c2ccccc2n1C1CCN(Cc2ccc(-c3[nH]c4cc5ncnc5cc4nc3-c3ccccc3)cc2)CC1	Fibroblast	%	82
C=CC(=O)Nc1cccc(Sc2nc(Nc3ccc(N4CCN(C)CC4)cc3)ncc2Cl)c1	Fibroblast	%	86
CC(C)NC(=O)N1CC[C@H](NC2=Nc3cc(F)ccc3N(CC(F)F)c3ccc(Cl)cc32)C1	Fibroblast	%	87
CC(C)Oc1ccccc1C(=O)Nc1ccccc1C(=O)Nc1cccc(S(=O)(=O)C(F)(F)F)c1	Fibroblast	%	85
C=CC(=O)Nc1ccc2[nH]c(=O)n(C3CCN(Cc4ccc(-c5nc6cc[nH]c(=O)c6cc5-c5ccccc5)cc4)CC3)c2c1	Fibroblast	%	86
CCc1nn(CCCN2CCN(c3cccc(Cl)c3)CC2)c(=O)n1CCOc1ccccc1.Cl [NEFAZODONE HYDROCHLORIDE]	Fibroblast	%	86
Cc1cccc(CN2CCN(C(c3ccccc3)c3ccc(Cl)cc3)CC2)c1.Cl.Cl (stereo not drawn)	Fibroblast	%	77

###

Test system: HEK-293T
experiment-description: Multiplex assay against HEK293T
Assay type: toxicity, cell-based
test-parameters: human, 24 h, 10 µM, compound concentration 10 uM, replicate 2

molecule	Total Cell Count
O=C(c1cc2c(cc1F)OC(c1ccc(F)cc1)(c1ccc(Cl)cc1Cl)O2)N1CCOCC1 (centres undefined)	154
Cc1c[nH]c2nccc(Oc3c(F)cc(Nc4cc(Cl)nc(N)n4)cc3F)c12 [BAY-549]	233
C=CC(=O)Nc1ccc2[nH]c(=O)n(C3CCN(Cc4ccc(-c5nc6cc[nH]c(=O)c6cc5-c5ccccc5)cc4)CC3)c2c1 [Borussertib]	1115
CC(C)(C)NC[C@H](O)COc1nsnc1N1CCOCC1 [TIMOLOL]	355
COc1cc(Nc2nccc(-c3cnn4nc(OC)ccc34)n2)cc(C(F)(F)F)c1	293
C=CC(=O)Nc1cccc(Sc2nc(Nc3ccc(N4CCN(C)CC4)cc3)ncc2Cl)c1	2375
CC(C)OC(=O)N1CCC(Oc2ncnc3c2cnn3-c2ccc(S(C)(=O)=O)cc2F)CC1	268
Cc1ccccc1C(c1ccccc1C)N1C2CCC1CC(O)(c1ccccc1)C2 (centres undefined)	229
CNC(=O)Nc1ccc(-c2nc(N3CC4CCC(C3)O4)c3cnn(C4CCC5(CC4)OCCO5)c3n2)cc1	182

###

Tested on: HEK-293T
experiment-description: Multiplex assay against HEK293T
Type: toxicity, cell-based
test-parameters: human, 48 h, 10 µM, compound concentration 10 uM, replicate 2
Could you mark each record Condition met if its Population Healthy Nuclei (%) falls strictly under 70%, and Condition not met if it equals or exceeds it?

molecule	qualitative-label
CC(C)OC(=O)N1CCC(Oc2ncnc3c2cnn3-c2ccc(S(C)(=O)=O)cc2F)CC1	Condition not met
Cc1ccc2c(c1)c1c(n2CCc2ccc(C)nc2)CCN(C)C1 [LATREPIRDINE]	Condition met
Cc1c[nH]c2nccc(Oc3c(F)cc(Nc4cc(Cl)nc(N)n4)cc3F)c12 [BAY-549]	Condition met

###

Test system: Fibroblast
experiment-description: Multiplex assay against human fibroblast
Type: toxicity, cell-based
test-parameters: 48 h, 10 µM, compound concentration 10 uM, replicate 1
Label not met if Population Apoptotic (%) falls below 80%; label met in every other case.

molecule	test-target	qualitative-label
COc1cc2ncn(-c3cc(OCc4ccccc4C(F)(F)F)c(C(N)=O)s3)c2cc1OC [GW843682X]	Fibroblast	not met
C#Cc1cccc(Nc2ncnc3cc(OCCOC)c(OCCOC)cc23)c1 [ERLOTINIB]	Fibroblast	met
CCc1nn(CCCN2CCN(c3cccc(Cl)c3)CC2)c(=O)n1CCOc1ccccc1.Cl [NEFAZODONE HYDROCHLORIDE]	Fibroblast	met
C[C@]12CC[C@@H]3c4ccc(O)cc4CC[C@H]3[C@@H]1CC[C@@H]2O [ESTRADIOL]	Fibroblast	not met
CC(C)(C)NC[C@H](O)COc1nsnc1N1CCOCC1 [TIMOLOL]	Fibroblast	not met
CC(C)NC(=O)N1CC[C@H](NC2=Nc3cc(F)ccc3N(CC(F)F)c3ccc(Cl)cc32)C1	Fibroblast	not met
Cl.O=C(O)c1cc(-c2ccc(C3CCNCC3)cc2)c2ccc(-c3ccc(C(F)(F)F)cc3)cc2c1	Fibroblast	not met

###

System: Fibroblast
experiment-description: Multiplex assay against human fibroblast
Assay type: toxicity, cell-based
test-parameters: 48 h, 10 µM, compound concentration 10 uM, replicate 2
Population Mitochondria Different-Phenotype (%) less than 50% is met; Population Mitochondria Different-Phenotype (%) greater than or equal to 50% is not met.

compound	qualitative-label
Cc1cccc(CN2CCN(C(c3ccccc3)c3ccc(Cl)cc3)CC2)c1.Cl.Cl (stereo not given)	met
CCc1nn(CCCN2CCN(c3cccc(Cl)c3)CC2)c(=O)n1CCOc1ccccc1.Cl [NEFAZODONE HYDROCHLORIDE]	not met
O=c1cc(N2CCOCC2)oc2c(-c3cccc4c3sc3ccccc34)cccc12	met
CNC(=O)Nc1ccc(-c2nc(N3CC4CCC(C3)O4)c3cnn(C4CCC5(CC4)OCCO5)c3n2)cc1	met

###

System: HEK-293T
experiment-description: Multiplex assay against HEK293T
Assay type: toxicity, cell-based
test-parameters: human, 48 h, 10 µM, compound concentration 10 uM, replicate 1
Listed here are compounds together with their documented Population Mitochondria Different-Phenotype (%).
measured-quantity: Population Mitochondria Different-Phenotype (%)

compound	assay-value
C[C@]12CC[C@@H]3c4ccc(O)cc4CC[C@H]3[C@@H]1CC[C@@H]2O	30
Cc1cccc(CN2CCN(C(c3ccccc3)c3ccc(Cl)cc3)CC2)c1.Cl.Cl (stereo not drawn)	89
CNC(=O)Nc1ccc(-c2nc(N3CC4CCC(C3)O4)c3cnn(C4CCC5(CC4)OCCO5)c3n2)cc1	100
COc1ccc(-c2ccc3ncc4c(c3c2)n(-c2ccc(N3CCNCC3)c(C(F)(F)F)c2)c(=O)n4C)cn1.O=C(O)/C=C\C(=O)O	0
CC(C)OC(=O)N1CCC(Oc2ncnc3c2cnn3-c2ccc(S(C)(=O)=O)cc2F)CC1	60
COc1cc2ncn(-c3cc(OCc4ccccc4C(F)(F)F)c(C(N)=O)s3)c2cc1OC [GW843682X]	96
COc1ccccc1CN[C@H]1C2CCN(CC2)[C@H]1C(c1ccccc1)c1ccccc1	98
CCc1nn(CCCN2CCN(c3cccc(Cl)c3)CC2)c(=O)n1CCOc1ccccc1.Cl [NEFAZODONE HYDROCHLORIDE]	98

###

Quick reference: Population Apoptotic (%) of the listed items.
System: Fibroblast
experiment-description: Multiplex assay against human fibroblast
Format: toxicity, cell-based
test-parameters: 24 h, 1 µM, compound concentration 1 uM, replicate 2
measured-quantity: Population Apoptotic (%)

compound	measured-quantity	unit-descriptor	assay-value
COc1ccc(-c2ccc3ncc4c(c3c2)n(-c2ccc(N3CCNCC3)c(C(F)(F)F)c2)c(=O)n4C)cn1.O=C(O)/C=C\C(=O)O	Population Apoptotic (%)	%	83
O=c1[nH]c2ccccc2n1C1CCN(Cc2ccc(-c3[nH]c4cc5ncnc5cc4nc3-c3ccccc3)cc2)CC1	Population Apoptotic (%)	%	62
Cc1nc(N2CC[C@H](O)C2)ncc1-c1cc(C(F)(F)F)cc2[nH]ncc12	Population Apoptotic (%)	%	60
O=C(c1cc2c(cc1F)OC(c1ccc(F)cc1)(c1ccc(Cl)cc1Cl)O2)N1CCOCC1 (centres undefined)	Population Apoptotic (%)	%	33

###

Recorded Population Mitochondria Different-Phenotype (%) values for a group of molecules are listed next.
System: Fibroblast
experiment-description: Multiplex assay against human fibroblast
Type: toxicity, cell-based
test-parameters: 12 h, 1 µM, compound concentration 1 uM, replicate 1
measured-quantity: Population Mitochondria Different-Phenotype (%)

molecule	test-target	assay-value
CNC(=O)Nc1ccc2c(c1)[C@@]1(CC2)OC(=O)N(CC(=O)N(Cc2ccc(F)cc2)[C@@H](C)C(F)(F)F)C1=O [A-486]	Fibroblast	4%
CC(C)OC(=O)N1CCC(Oc2ncnc3c2cnn3-c2ccc(S(C)(=O)=O)cc2F)CC1	Fibroblast	0%
O=C(c1cc2c(cc1F)OC(c1ccc(F)cc1)(c1ccc(Cl)cc1Cl)O2)N1CCOCC1 (configuration not stated)	Fibroblast	6%
C[C@]1(O)C[C@@H](c2nc(-c3ccc4ccc(-c5ccccc5)nc4c3)c3c(N)nccn32)C1 [LINSITINIB]	Fibroblast	1%
COc1ccc(-c2ccc3ncc4c(c3c2)n(-c2ccc(N3CCNCC3)c(C(F)(F)F)c2)c(=O)n4C)cn1.O=C(O)/C=C\C(=O)O [BGT-226]	Fibroblast	33%
Cc1cccc(CN2CCN(C(c3ccccc3)c3ccc(Cl)cc3)CC2)c1.Cl.Cl (configuration not stated)	Fibroblast	8%
CC(C)CC(=O)Nc1[nH]nc2c1CN(C(=O)C1CCN(C)CC1)C2(C)C [PHA-793887]	Fibroblast	3%

Data provenance is ChEMBL document CHEMBL4689842.
